test system: L1210 leukemia ip in BDF1 mice, survival T/C; test: NCI In Vivo Anticancer Drug Screen. Data for tumor model L1210 Leukemia (intraperitoneal) in B6D2F1 (BDF1) mice; conditions: endpoint: mean survival time; dose: 50.0 mg/kg/injection; schedule: Q01DX009 (ip); vehicle: saline; higher = longer survival
Inconclusive results and toxic doses are left out.
test.readout: T/C

According to the records, this compound Nc1nc(N)c(N=Nc2ccccc2S(=O)(=O)O)c(=O)[nH]1 displays T/C of 100 % of control

New cases:
According to the records, this compound CCOP(=O)(NN(C)C)OCC displays T/C of 102 % of control

According to the records, this compound COc1ccc(C(=O)NC2CCC2)cc1 displays T/C of 108 % of control

According to the records, this compound CCN(CC)CCOc1cccc(OC)c1 displays T/C of 96 % of control

According to the records, this compound CCC(C)C(CCCN1CCOCC1)(CNC(=O)CN(CC)CC)c1cccc2ccccc12 (stereo not given) displays T/C of 97 % of control

---

Tested on: L1210 leukemia ip in BDF1 mice, survival T/C
Assay: NCI In Vivo Anticancer Drug Screen. Data for tumor model L1210 Leukemia (intraperitoneal) in B6D2F1 (BDF1) mice
Settings: endpoint: mean survival time; dose: 200.0 mg/kg/injection; schedule: Q04DX003 (ip); vehicle: saline with Tween-80; higher = longer survival
Experimental: The antitumor activity of compounds was measured in mice bearing transplantable tumors. Survival or tumor size were measured and the results are expressed as the measurement made in the treated group (T) divided by the measurement made in the vehicle treated control group (C). The tumor model used in this assay is L1210 Leukemia (intraperitoneal) in B6D2F1 (BDF1) mice
Inconclusive results and toxic doses are left out.
test.readout: T/C

According to the records, this compound Brc1n[nH]nc1Br displays T/C of 104 % of control

New cases:
According to the records, this compound O=Cc1cc2c(cc1Cl)OCO2 displays T/C of 86 % of control

According to the records, this compound CC1=CC(O)CCC1 (centres undefined) displays T/C of 109 % of control

---

tested on: L1210 leukemia ip in BDF1 mice, survival T/C; assay: NCI In Vivo Anticancer Drug Screen. Data for tumor model L1210 Leukemia (intraperitoneal) in B6D2F1 (BDF1) mice; conditions: endpoint: mean survival time; dose: 400.0 mg/kg/injection; schedule: Q04DX002 (ip); vehicle: saline; higher = longer survival
Inconclusive results and toxic doses are left out.
Catalogue of T/C values

Use the examples below as a reference point.
According to the records, this compound C=NN1CCOC1=O displays T/C of 111 % of control

According to the records, this compound CCO/C(C)=N/N(C)c1n[n+]([O-])ccc1C displays T/C of 96 % of control

According to the records, this compound COc1cc2c(cc1OC)C1(NCC2)C(=O)Nc2c(C)cc(Cl)cc21 (stereo unspecified) displays T/C of 90 % of control

According to the records, this compound CCOC(=O)NCC(CCN(CC)CC)(c1cccc2ccccc12)C(C)CC (stereo unspecified) displays T/C of 100 % of control

According to the records, this compound CCOCCOCCOC(C)Oc1ccc(C(C)C)cc1 (stereo unspecified) displays T/C of 101 % of control

Here is another compound to look at.
According to the records, this compound C=CS(=O)(=O)CCN(C)C displays T/C of 94 % of control

---

Test system: L1210 leukemia ip in BDF1 mice, survival T/C
Experiment: NCI In Vivo Anticancer Drug Screen. Data for tumor model L1210 Leukemia (intraperitoneal) in B6D2F1 (BDF1) mice
Settings: endpoint: mean survival time; dose: 200.0 mg/kg/injection; schedule: Q01DX009 (ip); vehicle: Klucel (hydroxypropylcellulose) (HPC); higher = longer survival
Experimental: The antitumor activity of compounds was measured in mice bearing transplantable tumors. Survival or tumor size were measured and the results are expressed as the measurement made in the treated group (T) divided by the measurement made in the vehicle treated control group (C). The tumor model used in this assay is L1210 Leukemia (intraperitoneal) in B6D2F1 (BDF1) mice
Toxic doses and inconclusive results are not listed.
Catalogue of T/C values

According to the records, this compound COc1cc(OC)c(NC(=S)Nc2ccccc2C(F)(F)F)cc1Cl displays T/C of 88 % of control

According to the records, this compound Cc1cc(C)nc(NS(=O)(=O)c2ccc(N=Nc3nc4[nH]c(N)nc(=S)c4[nH]3)cc2)n1 displays T/C of 102 % of control

According to the records, this compound O=[N+]([O-])c1cccc(OCCCCOc2ccccc2)c1 displays T/C of 101 % of control

According to the records, this compound Cc1cc(Cl)ccc1NC(=O)C(c1ccccc1)c1ccccc1 displays T/C of 92 % of control

According to the records, this compound CCCCNC(=O)Nc1ccc(C(=O)OCC)cc1 displays T/C of 98 % of control

New cases:
According to the records, this compound C=CCOc1cc(C)cc(C)c1C displays T/C of 89 % of control

According to the records, this compound CCCCCCCCCC(=O)NC(=S)Nc1ccc(Br)cc1 displays T/C of 91 % of control

According to the records, this compound O=C(Nc1ccc(F)cc1)OCCOc1ccc([N+](=O)[O-])cc1 displays T/C of 107 % of control

According to the records, this compound COc1ccc(C=O)c(Br)c1O displays T/C of 97 % of control

According to the records, this compound Cc1ccc(S(=O)(=O)OCCCCCCCCCCCCCCOS(=O)(=O)c2ccc(C)cc2)cc1 displays T/C of 98 % of control

According to the records, this compound COC(=O)CCSCCC(=O)OC displays T/C of 97 % of control

According to the records, this compound Nc1snc2ncccc12 displays T/C of 103 % of control

According to the records, this compound Cc1cc(=O)c2cccc(C)c2[nH]1 displays T/C of 90 % of control

---

system: L1210 leukemia ip in BDF1 mice, survival T/C; assay: NCI In Vivo Anticancer Drug Screen. Data for tumor model L1210 Leukemia (intraperitoneal) in B6D2F1 (BDF1) mice; settings: endpoint: mean survival time; dose: 200.0 mg/kg/injection; schedule: Q04DX003 (ip); vehicle: saline with Tween-80; higher = longer survival
Toxic doses and inconclusive results are not listed.
test.readout: T/C

According to the records, this molecule OCC1=CCN(CCc2c[nH]c3ccccc23)CC1 displays T/C of 88 % of control

According to the records, this molecule CC(=O)Nc1ccc(S(=O)(=O)NC(=O)NC(C)C)cc1 displays T/C of 97 % of control

According to the records, this molecule Cc1cccc(/C=N\OCc2ccccc2)n1 displays T/C of 98 % of control

New cases:
According to the records, this molecule COC(=O)CCC(=O)/C=C1/Nc2ccccc2C1=O displays T/C of 95 % of control

According to the records, this molecule CC(=O)CCCN1C(=O)c2ccccc2C1=O displays T/C of 91 % of control

According to the records, this molecule NC(=O)c1[nH]cnc1/N=N/N(CCO)CCO displays T/C of 101 % of control

---

system: L1210 leukemia ip in BDF1 mice, survival T/C; assay: NCI In Vivo Anticancer Drug Screen. Data for tumor model L1210 Leukemia (intraperitoneal) in B6D2F1 (BDF1) mice; conditions: endpoint: mean survival time; dose: 200.0 mg/kg/injection; schedule: Q01DX009 (ip); vehicle: saline; higher = longer survival
Inconclusive results and toxic doses are left out.
test.readout: T/C

Record for Cc1[nH]c(=O)[nH]c(=O)c1/C=C/C(=O)NC(CO)CC(C)C (stereo not drawn) under target or system L1210 leukemia ip in BDF1 mice, survival T/C: T/C reported as 101 % of control

Record for COc1cc(C=NC(CO)C(=O)O)ccc1O.COc1cc(C=NC(CO)C(=O)O)ccc1O.[Fe] (stereo not drawn) under target or system L1210 leukemia ip in BDF1 mice, survival T/C: T/C reported as 92 % of control

Record for Cc1ccc(C)c(C(=O)c2ccccc2C(=O)O)c1 under target or system L1210 leukemia ip in BDF1 mice, survival T/C: T/C reported as 103 % of control

Record for COC1OC(CNCCO)C2OC(C)(C)OC12 (stereo not drawn) under target or system L1210 leukemia ip in BDF1 mice, survival T/C: T/C reported as 96 % of control

Record for CCOC1NC(C)(C)CO1 (stereo not drawn) under target or system L1210 leukemia ip in BDF1 mice, survival T/C: T/C reported as 101 % of control

Record for Nc1cc(S(=O)(=O)O)cc2cc(S(=O)(=O)O)c(N=Nc3cc(S(=O)(=O)O)cc4cc(S(=O)(=O)O)cc(O)c34)c(O)c12 under target or system L1210 leukemia ip in BDF1 mice, survival T/C: T/C reported as 94 % of control

New cases:
Record for O=C(O)C(O)c1ccc(Cl)cc1 (stereo not drawn) under target or system L1210 leukemia ip in BDF1 mice, survival T/C: T/C reported as 91 % of control

Record for CC(=O)OCc1cccc(C)n1 under target or system L1210 leukemia ip in BDF1 mice, survival T/C: T/C reported as 96 % of control

Record for CC(C)(C)N1CC1 under target or system L1210 leukemia ip in BDF1 mice, survival T/C: T/C reported as 103 % of control

Record for CCCCCCCCCCCCOP(OCCCCCCCCCCCC)OCCCCCCCCCCCC under target or system L1210 leukemia ip in BDF1 mice, survival T/C: T/C reported as 88 % of control

Record for O=S(O)c1ccccc1 under target or system L1210 leukemia ip in BDF1 mice, survival T/C: T/C reported as 105 % of control

Record for O=C(NC1CCC(C(=O)O)CC1)OCc1ccccc1 (stereo not drawn) under target or system L1210 leukemia ip in BDF1 mice, survival T/C: T/C reported as 100 % of control

Record for CC(O)C(O)C(=O)OCc1ccccc1 (stereo not drawn) under target or system L1210 leukemia ip in BDF1 mice, survival T/C: T/C reported as 102 % of control

Record for CCCCNC(=O)NC(=O)C(C)(C)Oc1ccc(Cl)cc1 under target or system L1210 leukemia ip in BDF1 mice, survival T/C: T/C reported as 95 % of control

Record for CCOC(OCC)OC(C)=O under target or system L1210 leukemia ip in BDF1 mice, survival T/C: T/C reported as 98 % of control

Record for CC(Cc1ccc(O)c(O)c1)C(C)Cc1ccc(O)c(O)c1 (stereo not drawn) under target or system L1210 leukemia ip in BDF1 mice, survival T/C: T/C reported as 96 % of control

Record for CC(C)(C)OC(=O)NCC(=O)O under target or system L1210 leukemia ip in BDF1 mice, survival T/C: T/C reported as 93 % of control

Record for CC(=O)Nc1ccccc1N under target or system L1210 leukemia ip in BDF1 mice, survival T/C: T/C reported as 113 % of control

Record for CCOC(=O)CCN1CCCC1 under target or system L1210 leukemia ip in BDF1 mice, survival T/C: T/C reported as 106 % of control

Record for O=C(O)C(CCc1ccccc1)(CCc1ccccc1)C(=O)O under target or system L1210 leukemia ip in BDF1 mice, survival T/C: T/C reported as 94 % of control

Record for O=C(c1ccc([N+](=O)[O-])cc1)N1C2CCCCCCC21 (stereo not drawn) under target or system L1210 leukemia ip in BDF1 mice, survival T/C: T/C reported as 110 % of control

Record for Cc1ccc(S(=O)(=O)N2CCc3ccccc3C(=O)C2Br)cc1 (stereo not drawn) under target or system L1210 leukemia ip in BDF1 mice, survival T/C: T/C reported as 94 % of control

Record for COc1cc2c(cc1O)CCCCC2=O under target or system L1210 leukemia ip in BDF1 mice, survival T/C: T/C reported as 119 % of control

Record for CN(C)CCCNc1nc(Cl)nc(Cl)n1 under target or system L1210 leukemia ip in BDF1 mice, survival T/C: T/C reported as 96 % of control

Record for NC(=O)CCP(=O)(CCC(N)=O)CCC(N)=O under target or system L1210 leukemia ip in BDF1 mice, survival T/C: T/C reported as 90 % of control

Record for CCCCCCCCCCOCCCCCCCCCC under target or system L1210 leukemia ip in BDF1 mice, survival T/C: T/C reported as 89 % of control

Record for CC(N)(CCCN)C(=O)O (stereo not drawn) under target or system L1210 leukemia ip in BDF1 mice, survival T/C: T/C reported as 102 % of control

Record for CCCCCCCCC(=O)CCCC under target or system L1210 leukemia ip in BDF1 mice, survival T/C: T/C reported as 100 % of control
